EXPERIMENTAL SYSTEM: isolated porcine cardiac ventricular myocardium (cardiac) (Sus scrofa, UniProt P79293)
Construct: isolated porcine cardiac ventricular myocardium (cardiac); from tissue; host or cells: porcine cardiac ventricle
Sequence (P79293 whole entry): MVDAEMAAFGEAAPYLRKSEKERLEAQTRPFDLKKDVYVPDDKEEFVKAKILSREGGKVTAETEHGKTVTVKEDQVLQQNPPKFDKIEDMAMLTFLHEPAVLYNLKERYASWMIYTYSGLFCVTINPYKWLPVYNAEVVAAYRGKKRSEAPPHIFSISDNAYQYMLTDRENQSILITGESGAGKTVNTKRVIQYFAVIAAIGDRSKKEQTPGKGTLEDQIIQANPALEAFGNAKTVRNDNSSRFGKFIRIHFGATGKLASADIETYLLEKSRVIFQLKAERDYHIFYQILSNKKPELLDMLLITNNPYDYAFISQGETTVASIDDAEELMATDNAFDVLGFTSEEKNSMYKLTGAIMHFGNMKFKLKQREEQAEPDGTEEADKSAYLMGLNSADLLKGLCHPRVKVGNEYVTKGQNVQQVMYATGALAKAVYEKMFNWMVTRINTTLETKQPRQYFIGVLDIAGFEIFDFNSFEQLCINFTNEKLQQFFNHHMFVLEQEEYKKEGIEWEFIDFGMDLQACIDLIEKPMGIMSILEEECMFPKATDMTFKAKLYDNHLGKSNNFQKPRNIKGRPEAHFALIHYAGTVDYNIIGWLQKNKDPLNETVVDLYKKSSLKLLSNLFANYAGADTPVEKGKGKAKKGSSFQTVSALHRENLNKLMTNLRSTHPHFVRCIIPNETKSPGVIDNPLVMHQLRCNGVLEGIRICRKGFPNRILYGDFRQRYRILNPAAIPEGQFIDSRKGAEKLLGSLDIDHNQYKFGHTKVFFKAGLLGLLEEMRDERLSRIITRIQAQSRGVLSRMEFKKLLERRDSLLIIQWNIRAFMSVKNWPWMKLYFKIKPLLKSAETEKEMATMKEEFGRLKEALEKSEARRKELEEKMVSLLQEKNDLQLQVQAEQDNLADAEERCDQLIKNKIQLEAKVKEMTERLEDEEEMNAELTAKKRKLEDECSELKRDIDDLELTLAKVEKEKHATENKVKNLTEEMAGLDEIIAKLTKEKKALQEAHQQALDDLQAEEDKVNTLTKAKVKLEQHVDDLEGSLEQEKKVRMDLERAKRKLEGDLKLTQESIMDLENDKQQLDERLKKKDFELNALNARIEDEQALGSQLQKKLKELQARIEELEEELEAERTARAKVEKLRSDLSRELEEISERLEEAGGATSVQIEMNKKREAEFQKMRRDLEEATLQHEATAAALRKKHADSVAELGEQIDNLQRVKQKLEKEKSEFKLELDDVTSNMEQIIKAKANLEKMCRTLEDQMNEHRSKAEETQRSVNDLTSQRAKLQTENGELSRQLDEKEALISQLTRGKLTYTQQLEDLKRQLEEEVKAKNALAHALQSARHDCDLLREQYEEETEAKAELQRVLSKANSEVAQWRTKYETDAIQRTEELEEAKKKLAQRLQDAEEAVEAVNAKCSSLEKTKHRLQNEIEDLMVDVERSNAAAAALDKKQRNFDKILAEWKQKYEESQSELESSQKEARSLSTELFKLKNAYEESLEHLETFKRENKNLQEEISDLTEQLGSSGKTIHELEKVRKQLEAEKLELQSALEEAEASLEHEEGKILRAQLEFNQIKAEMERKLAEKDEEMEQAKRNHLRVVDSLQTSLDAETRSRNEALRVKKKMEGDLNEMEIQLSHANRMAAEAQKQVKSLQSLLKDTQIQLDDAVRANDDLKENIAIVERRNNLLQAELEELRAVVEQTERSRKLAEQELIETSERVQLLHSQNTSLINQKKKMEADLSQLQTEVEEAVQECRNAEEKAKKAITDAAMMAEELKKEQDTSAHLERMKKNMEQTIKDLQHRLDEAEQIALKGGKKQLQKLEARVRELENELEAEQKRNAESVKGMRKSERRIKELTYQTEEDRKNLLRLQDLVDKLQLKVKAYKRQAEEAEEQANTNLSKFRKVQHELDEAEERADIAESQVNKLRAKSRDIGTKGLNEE
PROCEDURE DETAILS: actomyosin steady state ATPase measurement, cardiac myosin
Assay type: biochemical
CONDITION SET: concentration required for semi-maximal inhibition of ATPase
QUANTITY MEASURED: IC50 (µM)
Only the number, expressed in µM, is required.

Some entries whose results are on file:
{"COMPOUND": "CC(=O)c1ccc(N2CCC3(O)C(=O)c4ccncc4N=C23)cc1 (centres unmarked) [Compound 240]", "IC50, µM": 8.1}
{"COMPOUND": "CC(=O)c1ccc(N2CC[C@@]3(O)C(=O)c4ccsc4N=C23)cc1 [Compound 214]", "IC50, µM": 8.8}
{"COMPOUND": "CN(C)c1ccc(N2CCC3(O)C(=O)c4ccncc4N=C23)cc1 (centres unmarked) [Compound 251]", "IC50, µM": 6}

Now for the compound whose IC50 we want.
Inquiry: // query IC50 value for entry O=C1c2ccsc2N=C2N(c3cccs3)CC[C@@]12O [Compound 218]
Reply text: 2.7
